- test_system: DNA-dependent protein kinase (DNA-PK) (Homo sapiens)
- Construct: endogenous in cells; host or cells: Jurkat cells (ATCC TIB-152, clone E6-1), lysate
- Sequence (P78527 whole entry): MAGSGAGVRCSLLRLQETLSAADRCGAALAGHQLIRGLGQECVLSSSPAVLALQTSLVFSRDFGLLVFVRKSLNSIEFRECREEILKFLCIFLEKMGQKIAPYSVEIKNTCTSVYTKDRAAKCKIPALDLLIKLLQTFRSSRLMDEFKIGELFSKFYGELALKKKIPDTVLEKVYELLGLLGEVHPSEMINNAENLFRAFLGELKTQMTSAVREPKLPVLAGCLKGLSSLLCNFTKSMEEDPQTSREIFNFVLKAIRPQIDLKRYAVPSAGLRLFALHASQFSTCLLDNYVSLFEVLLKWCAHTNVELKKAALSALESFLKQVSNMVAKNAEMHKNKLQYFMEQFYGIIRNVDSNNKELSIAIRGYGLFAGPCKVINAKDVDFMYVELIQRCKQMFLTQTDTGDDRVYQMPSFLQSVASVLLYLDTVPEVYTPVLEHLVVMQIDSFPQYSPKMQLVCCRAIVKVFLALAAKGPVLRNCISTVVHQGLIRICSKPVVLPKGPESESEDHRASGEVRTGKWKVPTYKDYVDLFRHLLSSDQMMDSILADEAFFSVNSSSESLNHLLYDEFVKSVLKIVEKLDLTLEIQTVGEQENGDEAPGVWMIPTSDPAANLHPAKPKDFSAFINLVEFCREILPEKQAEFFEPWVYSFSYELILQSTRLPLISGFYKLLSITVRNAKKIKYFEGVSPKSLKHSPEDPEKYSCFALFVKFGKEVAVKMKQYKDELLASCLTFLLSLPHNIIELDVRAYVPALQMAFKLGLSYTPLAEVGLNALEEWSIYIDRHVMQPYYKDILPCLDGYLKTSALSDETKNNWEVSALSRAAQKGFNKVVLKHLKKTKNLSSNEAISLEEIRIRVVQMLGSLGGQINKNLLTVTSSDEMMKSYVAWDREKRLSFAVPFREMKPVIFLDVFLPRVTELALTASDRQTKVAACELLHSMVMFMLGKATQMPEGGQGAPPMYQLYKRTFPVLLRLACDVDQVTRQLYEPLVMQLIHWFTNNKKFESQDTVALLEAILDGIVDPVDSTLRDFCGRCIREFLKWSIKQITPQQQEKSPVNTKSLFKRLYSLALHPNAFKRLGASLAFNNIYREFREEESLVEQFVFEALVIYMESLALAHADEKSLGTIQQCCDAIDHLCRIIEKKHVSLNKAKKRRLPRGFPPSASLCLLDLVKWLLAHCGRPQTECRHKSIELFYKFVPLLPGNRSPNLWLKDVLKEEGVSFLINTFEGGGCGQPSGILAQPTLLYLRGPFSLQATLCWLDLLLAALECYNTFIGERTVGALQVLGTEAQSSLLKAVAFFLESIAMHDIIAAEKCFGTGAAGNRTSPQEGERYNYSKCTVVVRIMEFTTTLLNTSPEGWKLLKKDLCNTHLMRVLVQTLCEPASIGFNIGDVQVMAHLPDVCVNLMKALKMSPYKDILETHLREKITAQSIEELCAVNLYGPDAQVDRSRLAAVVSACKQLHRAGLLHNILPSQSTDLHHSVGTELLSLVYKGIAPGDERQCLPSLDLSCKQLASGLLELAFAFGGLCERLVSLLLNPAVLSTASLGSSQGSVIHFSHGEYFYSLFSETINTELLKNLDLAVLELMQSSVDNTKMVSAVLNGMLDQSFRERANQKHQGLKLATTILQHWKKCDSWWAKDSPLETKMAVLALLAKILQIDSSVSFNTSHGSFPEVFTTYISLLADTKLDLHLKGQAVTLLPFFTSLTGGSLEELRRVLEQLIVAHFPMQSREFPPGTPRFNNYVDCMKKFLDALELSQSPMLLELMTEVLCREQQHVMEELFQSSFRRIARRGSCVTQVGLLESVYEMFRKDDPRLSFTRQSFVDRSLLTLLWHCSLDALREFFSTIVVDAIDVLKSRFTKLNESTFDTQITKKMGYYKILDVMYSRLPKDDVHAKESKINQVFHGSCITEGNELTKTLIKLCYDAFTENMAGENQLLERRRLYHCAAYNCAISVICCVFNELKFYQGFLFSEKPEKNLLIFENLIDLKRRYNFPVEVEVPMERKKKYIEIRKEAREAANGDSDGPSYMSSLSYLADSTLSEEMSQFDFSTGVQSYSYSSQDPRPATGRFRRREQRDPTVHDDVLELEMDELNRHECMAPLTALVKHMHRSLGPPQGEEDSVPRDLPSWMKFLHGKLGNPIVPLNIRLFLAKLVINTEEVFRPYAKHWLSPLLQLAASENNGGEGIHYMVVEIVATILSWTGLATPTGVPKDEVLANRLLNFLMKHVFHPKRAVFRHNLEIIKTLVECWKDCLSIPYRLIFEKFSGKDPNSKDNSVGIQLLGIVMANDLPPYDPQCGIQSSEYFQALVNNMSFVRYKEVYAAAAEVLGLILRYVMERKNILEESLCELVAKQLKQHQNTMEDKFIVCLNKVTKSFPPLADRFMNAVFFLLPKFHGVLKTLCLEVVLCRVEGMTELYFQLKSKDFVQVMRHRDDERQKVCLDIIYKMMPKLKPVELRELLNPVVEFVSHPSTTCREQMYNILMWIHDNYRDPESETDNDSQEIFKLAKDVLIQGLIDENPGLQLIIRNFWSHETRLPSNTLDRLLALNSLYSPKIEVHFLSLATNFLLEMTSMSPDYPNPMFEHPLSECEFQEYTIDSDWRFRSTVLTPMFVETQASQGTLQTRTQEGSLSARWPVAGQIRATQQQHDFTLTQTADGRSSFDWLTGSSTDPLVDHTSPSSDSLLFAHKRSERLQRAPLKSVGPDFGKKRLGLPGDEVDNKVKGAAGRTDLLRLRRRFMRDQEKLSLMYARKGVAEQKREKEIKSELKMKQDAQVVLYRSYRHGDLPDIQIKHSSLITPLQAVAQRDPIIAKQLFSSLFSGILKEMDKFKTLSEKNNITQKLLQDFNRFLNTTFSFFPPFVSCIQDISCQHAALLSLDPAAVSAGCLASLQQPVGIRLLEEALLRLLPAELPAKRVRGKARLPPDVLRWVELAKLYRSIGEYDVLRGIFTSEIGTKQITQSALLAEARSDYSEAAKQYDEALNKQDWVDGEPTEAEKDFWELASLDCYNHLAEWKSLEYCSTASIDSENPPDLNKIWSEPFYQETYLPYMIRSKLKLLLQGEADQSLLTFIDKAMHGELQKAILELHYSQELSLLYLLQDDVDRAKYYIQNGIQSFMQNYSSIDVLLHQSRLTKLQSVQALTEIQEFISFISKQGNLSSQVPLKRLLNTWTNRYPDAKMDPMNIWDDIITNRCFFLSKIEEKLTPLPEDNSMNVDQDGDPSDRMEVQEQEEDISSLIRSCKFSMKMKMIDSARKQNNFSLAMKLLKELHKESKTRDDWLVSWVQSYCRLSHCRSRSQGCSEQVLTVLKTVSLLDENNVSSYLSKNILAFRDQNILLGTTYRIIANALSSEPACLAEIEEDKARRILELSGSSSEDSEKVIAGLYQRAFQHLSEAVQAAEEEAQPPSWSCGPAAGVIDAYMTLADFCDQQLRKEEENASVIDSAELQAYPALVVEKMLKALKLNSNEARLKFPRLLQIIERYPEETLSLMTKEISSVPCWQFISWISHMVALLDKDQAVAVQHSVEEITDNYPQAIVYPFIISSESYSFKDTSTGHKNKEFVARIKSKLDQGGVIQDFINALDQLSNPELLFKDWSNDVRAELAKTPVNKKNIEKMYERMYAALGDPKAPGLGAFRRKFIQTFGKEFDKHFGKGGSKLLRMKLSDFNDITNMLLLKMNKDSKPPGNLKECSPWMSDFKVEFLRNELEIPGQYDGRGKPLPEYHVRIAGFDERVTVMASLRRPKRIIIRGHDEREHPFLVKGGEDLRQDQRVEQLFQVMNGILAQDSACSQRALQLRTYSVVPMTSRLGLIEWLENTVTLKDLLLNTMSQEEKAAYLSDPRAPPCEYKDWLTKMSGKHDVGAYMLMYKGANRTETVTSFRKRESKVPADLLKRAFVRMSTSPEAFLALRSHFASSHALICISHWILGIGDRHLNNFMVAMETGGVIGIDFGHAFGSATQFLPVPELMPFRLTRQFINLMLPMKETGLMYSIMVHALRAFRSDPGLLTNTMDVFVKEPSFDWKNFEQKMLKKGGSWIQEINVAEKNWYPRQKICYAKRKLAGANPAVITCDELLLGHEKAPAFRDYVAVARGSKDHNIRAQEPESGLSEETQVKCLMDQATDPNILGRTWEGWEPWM
- assay_summary: kinobeads assay, DNA-PK (dot blot detection)
- Assay type: binding
- condition_info: Table 4, read-out: Inhibition values (IC50) DNAPK
pIC50: −log10 of the molar value.
measured_attribute: pIC50

Consider the worked cases shown below.
{"columns": ["test_smiles", "measured_attribute", "value_measured"],
 "data": [
  ["C[C@H]1COCCN1c1cc(-c2ccccc2S(C)(=O)=O)nc(-c2ccc(NC(=O)NCCO)cc2)n1", "pIC50", "≤ 5.00"],
  ["C[C@H]1COCCN1c1nc(-c2ccc(NC(=O)NC3CC3)cc2)cc(-c2cccnc2S(C)(=O)=O)n1", "pIC50", "≤ 5.00"],
  ["O=C(Nc1ccncc1)Nc1ccc(-c2nccc(N3CC4CCC(C3)O4)n2)cc1", "pIC50", "5.00 to 6.00"],
  ["O=C(NCCO)Nc1ccc(-c2nccc(N3CC4CCC(C3)O4)n2)cc1", "pIC50", "5.00 to 6.00"],
  ["C[C@H]1COCCN1c1cc(-c2ccncc2F)nc(-c2ccc(NC(=O)NC3CC3)cc2)n1", "pIC50", "≤ 5.00"],
  ["C[C@H]1COCCN1c1ccnc(-c2ccc(NC(=O)NCCO)cc2)n1", "pIC50", "≤ 5.00"]
]}

stdin: Look up and report measured pIC50 for this entry: `C[C@H]1COCCN1c1cc(-c2cccc(S(C)(=O)=O)c2)nc(-c2ccc(NC(=O)NC3CC3)cc2)n1`
stdout: ≤ 5.00

stdin: Look up and report measured pIC50 for this entry: `CNC(=O)Nc1ccc(-c2ccnc(N3CCOCC3)n2)cc1`
stdout: 5.00 to 6.00

Entry source: patent US9249129B2
